B1: glmS ribozyme (parent)
chain: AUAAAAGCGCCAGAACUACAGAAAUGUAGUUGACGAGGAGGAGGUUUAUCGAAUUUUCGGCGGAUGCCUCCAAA

- Variants of: B1
- method_notes: self-cleavage kobs at 2500 uM GlcN6P; higher = faster cleavage; RNA array
- condition_summary: with glucosamine-6-phosphate
Variants at the floor of the assay were thinned out.
reported_property: self-cleavage kobs at 2500 uM GlcN6P

>  <sequence_string>
AUAAAAGCGCCAGAACUACAGAAAUGUAGUUGAAGAGGAGGCGGUUUAUCGUAUUUUCGGCGGAUGCCUCAAAA [C34A A42C A52U C71A]

>  <self-cleavage kobs at 2500 uM GlcN6P>
< 1e-05 s⁻¹

$$$$

Dear colleague, I am looking for the recorded self-cleavage kobs at 2500 uM GlcN6P of the following variant: AUAAAAGCGCCAGGACUACAGAAAUGUAGUUAACGAGUAGGAGGUUUAUCGAAUUUUCGGCGGAUGCCUCCAAA [A14G G32A G38U]
< 1e-05 s⁻¹

Look up self-cleavage kobs at 2500 uM GlcN6P: AUAAAUGCGCCAGAACUACAGAAAUGUAGUUGACGAGUAGGAUGUUUAUCGAAUUUUCGGCGGAUGCCUCCAAA [A6U G38U G43U]
< 1e-05 s⁻¹

Tell me the measured self-cleavage kobs at 2500 uM GlcN6P of AUAAAAGCGCCAGAACUACAGAAAUGUAGCUGACGAGGAGGAGGUUUAUCGAAUUUUCCGCGGAUGCCUCCAAA [U30C G59C] , please.
< 1e-05 s⁻¹

What does the record list as self-cleavage kobs at 2500 uM GlcN6P for AUAAAAGCGCCAGAAUUACAGAAAUGUAGUUGACGAGGAGGAGGUUUAUCCAACUUGCGGCGGAUGCCUCCAAA [C16U G51C U54C U57G] ?
< 1e-05 s⁻¹

Hey, just so you know, these numbers are from the supplement of paper PMC7125110.
